The values you see were collected from patent US20260262643A1.

test system: galium; test: Test C postemergence; format: in vivo, Galium aparine; details: Postemergence, 1000 g ai/ha, 10 days, visual 0 to 100 scale (0 no effect, 100 complete control)
ASSAY READOUT: Plant response rating, Galium

Before answering, review these 6 worked examples.
Cc1ccc(-c2cccc(C(=O)N3C[C@H](C)Oc4c(C)cccc43)c2)s1 [Compound 244] = 60
Cc1cccc2c1O[C@@H](C)CN2C(=O)c1cccc(-n2cnc(Cl)c2)c1 [Compound 304] = 70
C[C@H]1CN(C(=O)c2cccc(-c3cnnn3C)c2)c2cccc(Cl)c2O1 [Compound 239] = 70
C[C@H]1CN(C(=O)c2cccc(-c3cncc(Cl)c3)c2)c2cccc(Cl)c2O1 [Compound 384] = 40
Cc1cc(-c2cccc(C(=O)N3C[C@H](C)Oc4c(C)cccc43)c2)cnn1 [Compound 209] = 40
COc1ccc(-c2cccc(C(=O)N3C[C@H](C)Oc4c(Cl)cccc43)c2)cn1 [Compound 385] = 60

Query: What Plant response rating, Galium appears in the records for this molecule with galium? CCC1CN(C(=O)c2ccnc(-c3cccnc3)c2)c2cccc(Cl)c2O1 (racemic) [Compound 286]
Response: 0

---

system: corn; assay: Test A postemergence; assay type: in vivo, Zea mays; conditions: 500 g ai/ha, postemergence, 10 days, visual injury, 0 to 100 scale (0 no effect, 100 complete control)
ASSAY READOUT: Plant response rating, Corn
Write the value as a bare number.

Before answering, review these 3 worked examples.
Cc1ccc(-n2cnc(C3CC3)n2)cc1C(=O)N1C[C@H](C)Oc2c(Cl)cccc21 = 60
CCCCc1ncn(-c2cccc(C(=O)N3C[C@H](C)Oc4c(C)cccc43)c2)n1 = 10
CCOc1ccc(-n2cnc(C(C)C)n2)cc1C(=O)N1C[C@H](C)Oc2c(Cl)cccc21 = 90

Query: What Plant response rating, Corn appears in the records for this compound with corn? CCc1ncn(-c2cccc(C(=O)N3C[C@H](C)Oc4c(Cl)cccc43)c2)n1
Response: 80

---

tested on: ragweed; experiment: Test C preemergence; type: in vivo, Ambrosia artemisiifolia; settings: 500 g ai/ha, preemergence; 0 to 100 scale (0 no effect, 100 complete control)
Each entry below carries its recorded Ragweed plant response rating.
Write the value as a bare number.

Before answering, review these 3 worked examples.
COc1ccc(-n2cnc(C(C)C)n2)cc1C(=O)N1C[C@H](C)Oc2c(F)cccc21 [Compound 269] = 100
COC[C@H]1CN(C(=O)c2cc(-n3cnc(C(C)C)n3)cc3c2OCCO3)c2cccc(Cl)c2O1 [Compound 395] = 90
Cc1ccc(-n2cnc(C(C)C)n2)cc1C(=O)N1CC(C(F)(F)F)Oc2c(Cl)cccc21 (single isomer, unassigned) [Compound 291] = 60

Now let's try a different one.
Query: Consider the compound shown here: Cc1nnc(-c2cccc(C(=O)N3C[C@H](C)Oc4c(Cl)cccc43)c2)o1 [Compound 355] What is its recorded Ragweed plant response rating?
Response: 0

---

system: ragweed; assay: Test C postemergence; type: in vivo, Ambrosia artemisiifolia; details: 125 g ai/ha, postemergence, 10 days; 0 to 100 scale, 0 no effect, 100 complete control
ASSAY READOUT: Plant response rating, Ragweed
Write the value as a bare number.

Before answering, review these 5 worked examples.
CC(C)c1ncn(-c2cc3c(c(C(=O)N4C[C@H](C)Oc5c(Cl)cccc54)c2)OCO3)n1 = 70
CC(C)c1ncn(-c2cc3c(c(C(=O)N4C[C@H](C)Oc5c(Cl)cccc54)c2)OCCCO3)n1 = 90
Cc1ccc(-n2cnc(CS(C)(=O)=O)n2)cc1C(=O)N1C[C@H](C)Oc2c(Cl)cccc21 = 90
CC(C)c1ncn(-c2ccc(SC(F)(F)F)c(C(=O)N3C[C@H](C)Oc4c(Cl)cccc43)c2)n1 = 0
COc1cc(C(=O)N2C[C@H](C)Oc3c(Cl)cccc32)cc(-n2cnc(C)n2)c1 = 60

Query: Consider the compound shown here: CCc1ncn(-c2ccc(C)c(C(=O)N3C[C@H](COC)Oc4c(Cl)cccc43)c2)n1 What is its recorded Plant response rating, Ragweed?
Response: 80

Query: Consider the compound shown here: COc1cc(C(=O)N2C[C@H](C)Oc3c(Cl)cccc32)cc(-n2cnc(C3CC3)n2)c1 What is its recorded Plant response rating, Ragweed?
Response: 60

---

Each entry below carries its recorded Oat, Wild plant response rating.
test system: oat, wild; test: Test C preemergence; format: in vivo, Avena fatua; details: Test C, preemergence, 125 g ai/ha; 0 to 100 scale (0 no effect, 100 complete control)
Write the value as a bare number.

Query: Consider the compound shown here: COc1ccc(-n2cnc(C(C)C)n2)cc1C(=O)N1C[C@H](C)Oc2c(F)cccc21 What is its recorded Oat, Wild plant response rating?
Response: 60

Query: Consider the compound shown here: Cc1cccc2c1O[C@@H](C)CN2C(=O)c1cc(-n2cnc(C(C)C)n2)cc2ccoc12 What is its recorded Oat, Wild plant response rating?
Response: 90

Query: Consider the compound shown here: Cc1ccc(-n2cnc(C3(C(F)(F)F)CC3)n2)cc1C(=O)N1C[C@H](C)Oc2c(Cl)cccc21 What is its recorded Oat, Wild plant response rating?
Response: 20

Query: Consider the compound shown here: CC1Oc2ccccc2N(C(=O)c2cccc(-n3cncn3)c2)C1C (stereo not drawn) What is its recorded Oat, Wild plant response rating?
Response: 0

Query: Consider the compound shown here: Cc1ccc(-n2cnc(C3(C)CC3)n2)cc1C(=O)N1C[C@H](C)Oc2c(Cl)cccc21 What is its recorded Oat, Wild plant response rating?
Response: 20

---

Each entry below carries its recorded Plant response rating, Oat, Wild.
test system: oat, wild; assay: Test A preemergence; format: in vivo, Avena fatua; conditions: 125 g ai/ha, visual injury after 10 days, 0 to 100 scale, 0 is no effect, 100 is complete control
Write the value as a bare number.

COc1ccc(-n2cnc(C)n2)cc1C(=O)N1C[C@H](C)Oc2c(Cl)cccc21 = 70
C[C@H]1CN(C(=O)c2cc(Br)cc(-n3cncn3)c2)c2cccc(Cl)c2O1 = 0
C[C@H]1CN(C(=O)c2cc(Cl)cc(-n3cncn3)c2)c2cccc(Cl)c2O1 = 50
CCOc1ccc(-n2cnc(C(C)C)n2)cc1C(=O)N1C[C@H](C)Oc2c(Cl)cccc21 = 20
CCc1ccc(-n2cnc(C3CC3)n2)cc1C(=O)N1C[C@H](C)Oc2c(Cl)cccc21 = 40

Query: Consider the compound shown here: O=C(c1cccc(-n2cncn2)c1)N1CC(C(F)(F)F)Oc2c(Cl)cccc21 (stereo not drawn) What is its recorded Plant response rating, Oat, Wild?
Response: 20

Query: Consider the compound shown here: CCCCc1ncn(-c2cccc(C(=O)N3C[C@H](C)Oc4c(C)cccc43)c2)n1 What is its recorded Plant response rating, Oat, Wild?
Response: 0

Query: Consider the compound shown here: CC1CN(C(=O)c2cccc(-n3cncn3)c2)c2cc(F)cc(F)c2O1 (stereo not drawn) What is its recorded Plant response rating, Oat, Wild?
Response: 0

Query: Consider the compound shown here: C[C@H]1CN(C(=O)c2cccc(-n3cncn3)c2)c2cccc(C#N)c2O1 What is its recorded Plant response rating, Oat, Wild?
Response: 0

Query: Consider the compound shown here: Cc1ccc(-n2cncn2)cc1C(=O)N1C[C@H](C)Oc2c(C)cccc21 What is its recorded Plant response rating, Oat, Wild?
Response: 50

Query: Consider the compound shown here: Cc1cccc2c1O[C@@H](C)CN2C(=O)c1cccc(-n2cnc(C3CC3)n2)c1 What is its recorded Plant response rating, Oat, Wild?
Response: 20

Query: Consider the compound shown here: CCc1ncn(-c2cccc(C(=O)N3C[C@H](C)Oc4c(C)cccc43)c2)n1 What is its recorded Plant response rating, Oat, Wild?
Response: 90

Query: Consider the compound shown here: CC1CN(C(=O)c2cccc(-n3cncn3)c2)c2cccc(C3CC3)c2O1 (stereo not drawn) What is its recorded Plant response rating, Oat, Wild?
Response: 0

Query: Consider the compound shown here: Cc1cccc2c1O[C@@H](C)CN2C(=O)c1cccc(-n2cnc(C(F)(F)F)n2)c1 What is its recorded Plant response rating, Oat, Wild?
Response: 30

---

system: ragweed; test: Test C postemergence; format: in vivo, Ambrosia artemisiifolia; conditions: Postemergence, 500 g ai/ha, 10 days, visual 0 to 100 scale (0 no effect, 100 complete control)
Each entry below carries its recorded Plant response rating, Ragweed.
Write the value as a bare number.

Query: Consider the compound shown here: COc1c(F)cc(-n2cnc(C(C)C)n2)cc1C(=O)N1C[C@H](C)Oc2c(Cl)cccc21 What is its recorded Plant response rating, Ragweed?
Response: 70

---

Each entry below carries its recorded pest or weed control at 125 g/ha.
system: foxtail, giant; assay: Test A preemergence; type: in vivo, Setaria faberi; settings: Setaria faberi, pre-emergence, 240 h, 125 g ai/ha, visual injury after 10 days, 0 to 100 scale, 0 is no effect, 100 is complete control, read-out: Plant response rating, Foxtail, Giant

Query: Consider the compound shown here: C#Cc1ncn(-c2cccc(C(=O)N3C[C@H](C)Oc4c(C)cccc43)c2)n1 [Compound 64] What is its recorded pest or weed control at 125 g/ha?
Response: 90%

Query: Consider the compound shown here: C[C@H]1CN(C(=O)c2cccc(-n3cnc(C4CCC4)n3)c2)c2cccc(Cl)c2O1 [Compound 93] What is its recorded pest or weed control at 125 g/ha?
Response: 80%

Query: Consider the compound shown here: Cc1ccc(-n2cnc(C(C)C)n2)cc1C(=O)N1C[C@H](C)Oc2c(Cl)cccc21 [Compound 73] What is its recorded pest or weed control at 125 g/ha?
Response: 100%

Query: Consider the compound shown here: Cc1cccc2c1O[C@@H](C)CN2C(=O)c1cccc(-n2cnc(Br)n2)c1 [Compound 61] What is its recorded pest or weed control at 125 g/ha?
Response: 90%

Query: Consider the compound shown here: COc1ccc(-n2cnc(C(C)C)n2)cc1C(=O)N1C[C@H](C)Oc2c(Cl)cccc21 [Compound 84] What is its recorded pest or weed control at 125 g/ha?
Response: 100%
